target: protein farnesyltransferase (Rattus norvegicus, UniProt Q02293+Q04631); construct: The enzyme is purified according to Reiss, Y., et al., Cell, 62: 81-88 (1990), utilizing steps one through three; from tissue; host or cells: rat brain; assay: Inhibition of farnesyltransferase (scintillation proximity assay, rat brain enzyme, biotin-K Ras B fragment substrate); format: biochemical; conditions: 1 × 10^-7 M (Table 3)
endpoint: % inhibition of farnesyltransferase at 1 × 10^-7 M (%)

CSCC[C@H](NC(=O)c1ccc(CN(c2ccccc2)S(=O)(=O)c2ccc(C)cc2)cc1-c1ccccc1C)C(=O)O
91

a: CSCC[C@H](NC(=O)c1ccc(CSc2nc(C)cc(C)n2)cc1-c1ccccc1C)C(=O)O
b: CSCC[C@H](NC(=O)c1ccc(CN[C@@H](CO)C2CCCCC2)cc1-c1ccccc1C)C(=O)O
Return label of the item with the larger % inhibition of farnesyltransferase at 1 × 10^-7 M. Candidates: a , b . Lab note: record the label of whichever item you select. b

###

target: protein farnesyltransferase (Rattus norvegicus, UniProt Q02293+Q04631); construct: The enzyme is purified according to Reiss, Y., et al., Cell, 62: 81-88 (1990), utilizing steps one through three; from tissue; host or cells: rat brain; assay: Inhibition of farnesyltransferase (scintillation proximity assay, rat brain enzyme, biotin-K Ras B fragment substrate); assay type: biochemical; conditions: 1 × 10^-6 M (Table 2)
endpoint: % inhibition of farnesyltransferase at 1 × 10^-6 M (%)

Use these answered entries as a reference point.
CSCC[C@H](NC(=O)c1ccc(CNCc2ccccc2)cc1-c1ccccc1)C(=O)O.Cl
69
CSCC[C@H](NC(=O)c1ccc(CSC2CCCCC2)cc1-c1ccccc1C)C(=O)[O-].[Li+]
96

P: CSCC[C@H](NC(=O)c1ccc(CNCCN(C(C)C)C(C)C)cc1-c1ccccc1)C(=O)O
Q: CSCC[C@H](NC(=O)c1ccc(CNc2cccc(I)c2)cc1-c1ccccc1)C(=O)O
Which value of % inhibition of farnesyltransferase at 1 × 10^-6 M is numerically greater: that of P or that of Q ? Could you answer with the label of the item you picked? P
(P: 72%, Q: 37%)

###

target: protein farnesyltransferase (Rattus norvegicus, UniProt Q02293+Q04631); construct: The enzyme is purified according to Reiss, Y., et al., Cell, 62: 81-88 (1990), utilizing steps one through three; from tissue; host or cells: rat brain; assay: Inhibition of farnesyltransferase (scintillation proximity assay, rat brain enzyme, biotin-K Ras B fragment substrate); format: biochemical; conditions: 1 × 10^-6 M (Table 2)
endpoint: % inhibition of farnesyltransferase at 1 × 10^-6 M (%)

CSCC[C@H](NC(=O)c1ccc(CN(Cc2ccccc2)Cc2cccc(Oc3ccccc3)c2)cc1-c1ccccc1C)C(=O)O
94
CSCC[C@H](NC(=O)c1ccc(COCCC23CC4CC(CC(C4)C2)C3)cc1-c1ccccc1C)C(=O)O
98
CSCC[C@H](NC(=O)c1ccc(CN(CCCc2ccccc2)c2ccccc2)cc1-c1ccccc1C)C(=O)O
95

I: CCS(=O)(=O)C[C@H](CC1CCCCC1)NCc1ccc(C(=O)N[C@@H](CCSC)C(=O)O)c(-c2ccccc2C)c1
II: CSCC[C@H](NC(=O)c1ccc(CNc2ccc(N3CCCCC3)cc2)cc1-c1ccccc1)C(=O)O
III: CSCC[C@H](NC(=O)c1ccc(NCCO)cc1-c1ccccc1)C(=O)O
IV: CSCC[C@H](NC(=O)c1ccc(CN(C(CC2CCCCC2)CC2CCCCC2)S(=O)(=O)c2ccccc2)cc1-c1ccccc1C)C(=O)O
Highest % inhibition of farnesyltransferase at 1 × 10^-6 M first, then in falling order down to the smallest. Sort and list the labels as requested. I, IV, II, III
(I: 98%, IV: 65%, II: 39%, III: 24%)

I: COC(=O)c1cscc1NCc1ccc(C(=O)N[C@@H](CCSC)C(=O)O)c(-c2ccccc2C)c1
II: CSCC[C@H](NC(=O)c1ccc(CNc2ccccc2F)cc1-c1ccccc1)C(=O)O
Of I versus II , which is the one with smaller reported % inhibition of farnesyltransferase at 1 × 10^-6 M? In your reply, give the label of the chosen option. II

###

biological target: protein farnesyltransferase (Rattus norvegicus, UniProt Q02293+Q04631); construct: The enzyme is purified according to Reiss, Y., et al., Cell, 62: 81-88 (1990), utilizing steps one through three; from tissue; host or cells: rat brain; experiment: Inhibition of farnesyltransferase (scintillation proximity assay, rat brain enzyme, biotin-K Ras B fragment substrate); assay type: biochemical; settings: Table 6, ** = 0.01 μM (footnote); title prints 0.01 mM
endpoint: % inhibition at 0.01 μM (**) (%)

COCCN(CCC1CCCCC1)Cc1ccc(C(=O)N[C@@H](CCSC)C(=O)O)c(-c2ccccc2C)c1
89
CCSCC(CC1CCCCC1)NCc1cc(-c2ccccc2C)c(C(=O)N[C@@H](CCSC)C(=O)O)cc1F (stereo partly shown)
95
CCSCC(CC1CCCCC1)NCc1cc(-c2ccccc2C)c(C(=O)N[C@@H](CCSC)C(=O)O)cc1OC (stereo partly shown)
83
CSCC[C@H](NC(=O)c1ccc(CN(CCF)CCC2CCCCC2)cc1-c1ccccc1C)C(=O)O
96

###

molecular target: protein farnesyltransferase (Rattus norvegicus, UniProt Q02293+Q04631); construct: The enzyme is purified according to Reiss, Y., et al., Cell, 62: 81-88 (1990), utilizing steps one through three; from tissue; host or cells: rat brain; assay: Inhibition of farnesyltransferase (scintillation proximity assay, rat brain enzyme, biotin-K Ras B fragment substrate); format: biochemical; details: read-out: % inhibition of farnesyltransferase at 1 × 10^-6 M; 1 × 10^-6 M (Table 2)
Where a name gives a salt, the structure may show the parent alone.
endpoint: inhibition at 1 µM (%)

Consider the following illustrative entries.
CSCC[C@H](NC(=O)c1ccc(CN(C2CC2)C2(Cc3ccccc3)CC2)cc1-c1ccccc1C)C(=O)O
98
CSCC[C@H](NC(=O)c1ccc(C[C@H]2CC[C@@H](c3ccccc3)CC2)cc1-c1ccccc1C)C(=O)O [Example 790, lithium salt]
88
CSCC[C@H](NC(=O)c1ccc(CN(C(C)C)C2(Cc3ccccc3)CCC2)cc1-c1ccccc1C)C(=O)O
98
CSCC[C@H](NC(=O)c1ccc(C=CCCCc2ccccc2)cc1-c1ccccc1C)C(=O)O
87

I: CSCC[C@H](NC(=O)c1ccc(/C=C/CC2CCCCC2)cc1-c1ccccc1C)C(=O)O [Example 471, lithium salt]
II: CSCC[C@H](NC(=O)c1ccc(CNC(C)(C)CC2CCCCC2)cc1-c1ccccc1C)C(=O)O
Between the entries labelled I and II , which has a larger inhibition at 1 µM value on record? Give the label under which the chosen entry appears. I
(I: 94%, II: 62%)

###

Target: protein farnesyltransferase (Rattus norvegicus, UniProt Q02293+Q04631)
Construct: The enzyme is purified according to Reiss, Y., et al., Cell, 62: 81-88 (1990), utilizing steps one through three; from tissue; host or cells: rat brain
Assay: Inhibition of farnesyltransferase (scintillation proximity assay, rat brain enzyme, biotin-K Ras B fragment substrate)
Type: biochemical
Details: 1 × 10^-7 M (Table 3)
Experimental: The ability of the compounds of the invention to inhibit protein farnesyltransferase or protein geranylgeranyltransferase can be measured according to the method of Moores, et al., J. Biol. Chem. 266: 14603 (1991) or the method of Vogt, et al., J. Biol. Chem. 270:660-664 (1995). […] In addition, in vitro inhibition of protein farnesyltransferase may be measured by the following procedure. […] The % inhibition of protein farnesyltransferase was determined for representative compounds of the invention.
% inhibition of farnesyltransferase at 1 × 10^-7 M: recorded values
Give the number; % is assumed, so skip it.

CSCC[C@H](NC(=O)c1ccc(COCCC2CCCCC2)cc1-c1ccccc1C)C(=O)[O-].[Li+]
95
CSCC[C@H](NC(=O)c1ccc(COC(Cc2ccccc2)c2ccco2)cc1-c1ccccc1C)C(=O)[O-].[Li+] (stereo partly drawn)
84

Now look at this entry.
Name the recorded % inhibition of farnesyltransferase at 1 × 10^-7 M of the item CSCC[C@H](NC(=O)c1ccc(COCC2CCC(c3ccc(Cl)cc3)O2)cc1-c1ccccc1C)C(=O)O (stereo partly drawn) in your answer. 93

###

target: protein farnesyltransferase (Rattus norvegicus, UniProt Q02293+Q04631); construct: The enzyme is purified according to Reiss, Y., et al., Cell, 62: 81-88 (1990), utilizing steps one through three; from tissue; host or cells: rat brain; assay: Inhibition of farnesyltransferase (scintillation proximity assay, rat brain enzyme, biotin-K Ras B fragment substrate); format: biochemical; conditions: 1 × 10^-5 M (Table 1)
endpoint: % inhibition of farnesyltransferase at 1 × 10^-5 M (%)

CSCC[C@H](NC(=O)c1ccc(CNCCCN2CCOCC2)cc1-c1ccccc1)C(=O)O [Example 377]
71
CSCC[C@H](NC(=O)c1ccc(CNc2cc(C)cc(C)c2)cc1-c1ccccc1)C(=O)O [Example 709]
55
CSCC[C@H](NC(=O)c1ccc(CNc2ccc3c(c2)CCC3)cc1-c1ccccc1)C(=O)O [Example 705]
72
